Origin of the recorded values: PubChem BioAssay (NCI)

Experiment: NCI Yeast Anticancer Drug Screen. Data for the mec2-1 strain (AID 157)
Conditions: S. cerevisiae mec2-1 strain, stronger effect = higher value; at 50.0 µM unless noted
Protocol: Growth inhibition of yeast strains with defined genetic alterations is measured as a screen for potential anti-cancer activity. Selected strains with alterations in DNA damage repair or cell cycle control were exposed to compounds and growth inhibition was measured relative to vehicle treated controls. The strain used in this assay is mec2-1
About 79,000 compounds went through this panel and 15% of them were active in at least one assay; those are over-represented in the sample as a whole.
property: growth inhibition (%)
Answers are plain numbers, in %.

Examples from the recorded data:
Give a short answer stating reported growth inhibition for C=C1C(=O)C23CC1CCC2C12CO[C@H](O)[C@H]1C(C)(C)[C@H](OC(C)=O)C[C@H]2OC3=O (stereo partly drawn) .
4.15

Please supply the value of reported growth inhibition for the item O=C(C(=C(I)I)c1ccccc1)c1ccccc1
-7.95

Could you please provide reported growth inhibition for COc1cc(C2CC(C)(Nc3ccccc3)Oc3cc4c(cc32)OCO4)cc(OC)c1OC (stereo not drawn) ? Thanks!
-13.7

For each entry beneath this line, provide reported growth inhibition.
1. CC(=O)Nc1ccc(NCC(=O)Nn2cnc3ccc(S(=O)(=O)Nc4ccc(NC(C)=O)cc4)cc3c2=O)cc1
2. Nc1ccc(N)c2c(O)c3ccccc3c(O)c12
3. COc1ccc(C2=Nc3ccccc3N=C(SC)C2)cc1
4. COc1cc(CNc2ccccc2)ccc1O
5. C(CCC1CO1)CC1CO1 (stereo not drawn)
6. O=c1[nH]c2cc(Cl)ccc2nc1/C(=N\O)C(O)c1ccc([N+](=O)[O-])cc1 (stereo not drawn)
7. COc1cccc(C2SCC(=O)N2c2ccc(-n3c(-c4ccccc4)nc4ccccc4c3=O)cc2)c1OC (stereo not drawn)

1. -18.1
2. 11.8
3. -5.3
4. 6.1
5. -21.1
6. 14.2
7. 26.4

###

assay: NCI Yeast Anticancer Drug Screen. Data for the sgs1 mgt1 strain (AID 161);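 also: 0% = growth of cultures given vehicle only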; details: S. cerevisiae sgs1 mgt1 strain, stronger effect = higher value; at 50.0 µM unless noted
The panel holds about 79,000 compounds, 15% with a hit somewhere; the sample as a whole holds those more often.
Hi there, I'd appreciate the recorded growth inhibition for every entry that follows.
Answers are plain numbers, in %.

Sample answers from the record:
Give a short answer stating reported growth inhibition for CC1CCC(C(=O)O)(C(Br)C(=O)O)CC1 (stereo not drawn) .
-12.8

Tell us which growth inhibition value is on record for CC(=O)OCC1OC(O)C(NC(=O)C(F)(F)F)C(OC(C)=O)C1OC(C)=O (stereo not drawn)
99.7

Kindly consider the entry below.
Write down growth inhibition measured for item N#Cc1c(-c2ccc(Cl)cc2)c(-c2ccc(Cl)cc2)nn(CCOC(=O)CCC(=O)OCCn2nc(-c3ccc(Cl)cc3)c(-c3ccc(Cl)cc3)c(C#N)c2=O)c1=O
5.5

###

test: NCI Yeast Anticancer Drug Screen. Data for the cln2 rad14 strain (AID 165);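 also: 0% = growth equal to vehicle treated cultures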; conditions: S. cerevisiae cln2 rad14 strain, stronger effect = higher value; at 50.0 µM unless noted
Compounds without any hit were thinned out: in the full panel of roughly 79,000, 15% have a hit.
Hi there, I'd appreciate the recorded growth inhibition for every entry that follows.
Give bare numbers, in %.

Give growth inhibition for each of the items listed below.
1. O=C1OCC(c2ccccc2)=C1c1ccccc1
2. Cc1ccc(S(=O)(=O)CBr)cc1
3. Cc1ccc(C(=O)CC(Sc2ccccc2N)c2c(Cl)cccc2Cl)c(C)c1 (stereo not given)
4. CC1/C(=N\O)CC2C3(C)CCC2(C(C)C(=O)O)C(=O)C13 (stereo not given)
5. COc1cc(C2c3cc4c(cc3OC(NN=C(C)C)C2C)OCO4)cc(OC)c1O (stereo not given)
6. CC[N+](CC)(CC)CCOc1nc(OCC[N+](CC)(CC)CC)nc(OCC[N+](CC)(CC)CC)n1
7. Cc1ccc(S(=O)(=O)N/N=C(/c2nc3ccc([N+](=O)[O-])cc3[nH]c2=O)C(O)c2ccc(C(O)/C(=N\NS(=O)(=O)c3ccc(C)cc3)c3nc4ccc([N+](=O)[O-])cc4[nH]c3=O)cc2)cc1 (stereo not given)

[-16, 3.3, -4.5, 8.55, 4.5, 9.1, 0.6]

Go through the list and state growth inhibition for each entry.
1. CC1=CCC2C(C)(C)CCCC2(C)C1COC1OC(OCC2C(C)=CCC3C(C)(C)CCCC23C)C2C1=CCC1C(C)(C)CCCC21C (stereo not given)
2. CCCCCCCC[n+]1ccc(C#N)cc1
3. C=C(C)C1CC[C@@](C)(O)[C@H](C#N)C1 (stereo not given in full)
4. COC(=O)c1ccc(N=NN(C)CN=[N+]=[N-])cc1
5. NC(=O)c1ccc(-c2csc(=S)[nH]2)s1
6. COc1ccc(N=C2C(=Nc3ccc(OC)cc3)N(c3ccccc3)C(=S)N2N=C=C2Sc3ccccc3N2C)cc1
7. Cc1ccccc1N=C(N)N

1. 89.6
2. 15.9
3. -12.2
4. -21.3
5. -13.1
6. -8.3
7. -3.3

I'm hoping you can list growth inhibition for every compound here, please.
1. O=C1OC(=O)C2=C1CCc1ccc3ccccc3c12
2. CC(C)c1ccccc1NC(=O)CCC(=O)NN

[-29.6, 6.1]

###

test: NCI Yeast Anticancer Drug Screen. Data for the rad50 strain (AID 155);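 also: 0% = growth of vehicle-only cultures of the same strain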; conditions: S. cerevisiae rad50 strain growth inhibition; at 50.0 µM unless noted
The panel holds about 79,000 compounds, 15% with a hit somewhere; the sample as a whole holds those more often. The source made the active and inactive calls. No stated cut-off is given here; in the data, active means growth inhibition above about 70%; inactive means the rest.
Output constraint: value belongs to active, inactive

Known results for compounds:
Write down the call the test reported for this compound. Item: Cc1ccc(Nc2nc(N)nc3c2ncn3C2OC(CO)C(O)C2O)cc1 (centres undefined)
inactive

Please share the test call associated with CC(=O)Nc1ccccc1C(C#N)Cc1ccccc1 (centres undefined) .
inactive

Others:
// param item: CC(=O)Nc1nc(SCc2ccccc2)c2[nH]cnc2n1 ; yields the recorded call
inactive

Status in this test for NC(CC(=O)c1ccccc1NC=O)C(=O)O (centres undefined) ?
inactive

Any idea what this test logged for CCCC1([N+]2(C)CCCC2)CS(=O)C1CC (centres undefined) ?
inactive

Please let me know the test result on file for O=C1OCC/C1=C\c1ccc2c(c1)OCO2 .
inactive

Which outcome was assigned to CC(C)(C)c1ccc(C(C)(C)C)c(N2C(=O)c3ccc4c5ccc6c7c(ccc(c8ccc(c3c48)C2=O)c75)C(=O)N(c2cc(C(C)(C)C)ccc2C(C)(C)C)C6=O)c1 in this test?
inactive

Query: recorded result category for O=C(O)CNOCN1C(=O)c2ccccc2C1=O in this test
inactive

What is the recorded call for this compound in the test? Cc1cc(N(CCC#N)CCC#N)ccc1N=Nc1ccc(S(N)(=O)=O)cc1
inactive

Hello, I am checking results. What call was entered for CCOC(=O)Nc1ccccc1OCC ?
inactive

In this assay, the call recorded for OC(c1ccccc1)c1ccc(C(O)c2ccccc2)cc1 (centres undefined) was what?
inactive

Called result for O=C(Nc1ccc(Br)cc1)C(Br)C(Br)c1ccccc1 (centres undefined)
active

Look up the recorded call for O=C1c2c(ccc3c2CCCC3)CC1Cc1ccc2c(c1)CCCC2 (centres undefined) in this test.
inactive

Outcome? CCCN(CCC)C(=O)c1ccccc1C
inactive

// outcome(item) with item = NC1CCCC2CCC(N)C12 (centres undefined)
inactive

Dear all, I need the recorded test outcome for Nc1ccccc1SC(CC(=O)c1ccc(-c2ccccc2)cc1)c1ccco1 (centres undefined) , thank you.
inactive

For this compound, state the assay outcome: O=C(c1ccc(-c2ccccc2)cc1)C(O)c1ccc(-c2ccccc2)cc1 (centres undefined)
inactive

Any idea what this test logged for CC12Nc3ccccc3N1C(=O)c1ccccc12 (centres undefined) ?
inactive

Called result for COc1ccc(NC(=S)N/N=C(\C)c2ccccn2)cc1
active

Which outcome did this test record for the compound Cc1ccc(NC(=O)Oc2ccc(-c3ccccc3)cc2Br)c(Br)c1 ?
inactive

Hello, I am checking results. What call was entered for O=C1/C(=C/c2cccc(Br)c2)Cc2ccccc21 ?
inactive

Hi, sorry to bother you, what did the test record for O=C(c1ccccc1)C1CC1C(=O)c1ccccc1 (centres undefined) ?
inactive

###

assay: NCI Yeast Anticancer Drug Screen. Data for the sgs1 mgt1 strain (AID 161);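 also: 0% = growth of cultures given vehicle only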; conditions: S. cerevisiae sgs1 mgt1 strain, stronger effect = higher value; at 50.0 µM unless noted
This is part of a sample that, as a whole, favours compounds with a hit. Of some 79,000 tested, about 15% had one in any assay.
Please go through the items and note down their growth inhibition.
Answers are plain numbers, in %.

Solved entries (count: 2):
Assign growth inhibition to the following record: C=C1C2CCC3(CCC4C5(C)CCCC4(C=[N+](CCO)C5)C3C2)C1O (stereo not drawn)
-27.9

Provide measured growth inhibition value, entry: c1cnc2c(c1)Oc1nc3ccccc3nc1S2
3.9

Now examine the next entry.
Return the recorded growth inhibition value; entry: O=[N+]([O-])c1cc(C(Nc2nncs2)Nc2nncs2)ccc1Cl
43.9

###

assay: NCI Yeast Anticancer Drug Screen. Data for the bub3 strain (AID 167); conditions: S. cerevisiae bub3 mutant strain, stronger effect = higher value; at 50.0 µM unless noted
This is part of a sample that, as a whole, favours compounds with a hit. Of some 79,000 tested, about 15% had one in any assay.
property: growth inhibition (%)
Give bare numbers, in %.

Solved entries:
Provide growth inhibition value for the following compound: O=c1[nH]c(=O)c2cc(Cl)ccc2[nH]1
4.75

Provide measured growth inhibition value, entry: O=C1CCCCCCCCCCCCCCCCC1
-2.15

Return reported growth inhibition. Input compound: Cc1ccc(-c2cc(-c3ccccc3)c(C#N)c(=O)n2C2OC(CO)C(O)C(O)C2O)cc1 (centres undefined)
8.65

Consider the record given below.
Quote growth inhibition reported for c1cc(-c2cnc(-c3ccc4c(c3)CCCO4)o2)ccn1 please.
46.5
